- Test protocol: in vivo
- Condition parameters: BALB/c nude, mouse, in vivo, iv, total radioactivity, % ID/g Femur
Recorded endpoint: tissue uptake at 72 h (%ID/g)
One number for each entry, in %ID/g.

C[C@@H](O)[C@H](NC(=O)[C@@H]1CSSC[C@H](NC(=O)[C@@H](Cc2ccccc2)NC(=O)COCCOCCNC(=O)COCCOCCNC(=O)[C@H](CCCCNC(=O)c2cccc(NC(=O)N[C@@H]3CN(C4CCCCC4)c4ccccc4N(CC(=O)C(C)(C)C)C3=O)c2)NC(=O)CN2CCN(CC(=O)O)CCN(CC(=O)O)CCN(CC(=O)O)CC2)C(=O)N[C@@H](Cc2ccc(O)cc2)C(=O)N[C@H](Cc2c[nH]c3ccccc23)C(=O)N[C@@H](CCCCN)C(=O)N[C@@H]([C@@H](C)O)C(=O)N1)C(=O)O [Compound 177Lu-I-39, metal not drawn]    0.1
C[C@@H](O)[C@H](NC(=O)[C@@H]1CSSC[C@H](NC(=O)[C@@H](Cc2ccccc2)NC(=O)[C@H](CCCCNC(=O)COCCOCCNC(=O)c2cccc(NC(=O)N[C@@H]3CN(C4CCCCC4)c4ccccc4N(CC(=O)C(C)(C)C)C3=O)c2)NC(=O)CN2CCN(CC(=O)O)CCN(CC(=O)O)CCN(CC(=O)O)CC2)C(=O)N[C@@H](Cc2ccc(O)cc2)C(=O)N[C@H](Cc2c[nH]c3ccccc23)C(=O)N[C@@H](CCCCN)C(=O)N[C@@H]([C@@H](C)O)C(=O)N1)C(=O)O [^177Lu-I-36, metal not drawn]    0.59
C[C@@H](O)[C@H](NC(=O)[C@@H]1CSSC[C@H](NC(=O)[C@@H](Cc2ccccc2)NC(=O)CN2CCN(CC(=O)O)CCN(CC(=O)O)CCN(CC(=O)O)CC2)C(=O)N[C@@H](Cc2ccc(O)cc2)C(=O)N[C@H](Cc2c[nH]c3ccccc23)C(=O)N[C@@H](CCCCN)C(=O)N[C@@H]([C@@H](C)O)C(=O)N1)C(=O)O [^177Lu-C-1, metal not drawn, reference compound]    0.08
C[C@@H](O)[C@H](NC(=O)[C@@H]1CSSC[C@H](NC(=O)[C@@H](Cc2ccccc2)NC(=O)COCCOCCNC(=O)[C@H](CCCCNC(=O)c2cccc(NC(=O)N[C@@H]3CN(C4CCCCC4)c4ccccc4N(CC(=O)C(C)(C)C)C3=O)c2)NC(=O)CN2CCN(CC(=O)O)CCN(CC(=O)O)CCN(CC(=O)O)CC2)C(=O)N[C@@H](Cc2ccc(O)cc2)C(=O)N[C@H](Cc2c[nH]c3ccccc23)C(=O)N[C@@H](CCCCN)C(=O)N[C@@H]([C@@H](C)O)C(=O)N1)C(=O)O [Compound 177Lu-I-37, metal not drawn]    0.18

Ask | Give its tissue uptake at 72 h value. Item: C[C@@H](O)[C@H](NC(=O)[C@@H]1CSSC[C@H](NC(=O)[C@@H](Cc2ccccc2)NC(=O)[C@H](CCCCNC(=O)c2cccc(NC(=O)N[C@@H]3CN(C4CCCCC4)c4ccccc4N(CC(=O)C(C)(C)C)C3=O)c2)NC(=O)COCCOCCNC(=O)CN2CCN(CC(=O)O)CCN(CC(=O)O)CCN(CC(=O)O)CC2)C(=O)N[C@@H](Cc2ccc(O)cc2)C(=O)N[C@H](Cc2c[nH]c3ccccc23)C(=O)N[C@@H](CCCCN)C(=O)N[C@@H]([C@@H](C)O)C(=O)N1)C(=O)O [^177Lu-I-35, metal not drawn]
Reply | 0.21
